- System: THRa:RXRa (NR concentration 90 nM, RXRa partner concentration 90 nM)
- Experimental Protocol: PBM binding z-score (relative to random genomic background probes); higher = stronger binding; sequences stand for … in GC…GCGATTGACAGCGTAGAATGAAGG
Readout Label: PBM binding z-score
A bare number is all that is needed in reply.

Known PBM binding z-score results, listed for orientation:
[
  {
    "Primary Sequence": "GCTGCTAGGTCACCTGATGGTCAGCTAAAGCTCG",
    "PBM binding z-score": 3
  },
  {
    "Primary Sequence": "AATACAGGGTCACTAGGCCAGTGTAGGTACGAAT",
    "PBM binding z-score": 3.4
  },
  {
    "Primary Sequence": "CTCGAAAGGTCGGGTGAGGTGAGTATACGGATAA",
    "PBM binding z-score": 5.11
  },
  {
    "Primary Sequence": "GCATAAAGGTAATACAAGGTGAAAGTCCGATTGT",
    "PBM binding z-score": 4.64
  },
  {
    "Primary Sequence": "TCTGCTAGGTCAAAGATGGTCAGCTAATCTGCTA",
    "PBM binding z-score": 3.05
  }
]

Notebook: GGAATGAGGGCATTCGAGTTGATAGCATGGCGAT , PBM binding z-score read as 3.3

Data provenance: the supplement of paper PMC6555819
